target: TBK1 (Homo sapiens (Human), UniProt Q9UHD2); test: TBK1 low ATP kinase assay (in vitro assay 1); type: biochemical; conditions: in vitro assay 1, read-out: TBK1 low ATP kinase assay IC50
Sequence (Q9UHD2 whole entry): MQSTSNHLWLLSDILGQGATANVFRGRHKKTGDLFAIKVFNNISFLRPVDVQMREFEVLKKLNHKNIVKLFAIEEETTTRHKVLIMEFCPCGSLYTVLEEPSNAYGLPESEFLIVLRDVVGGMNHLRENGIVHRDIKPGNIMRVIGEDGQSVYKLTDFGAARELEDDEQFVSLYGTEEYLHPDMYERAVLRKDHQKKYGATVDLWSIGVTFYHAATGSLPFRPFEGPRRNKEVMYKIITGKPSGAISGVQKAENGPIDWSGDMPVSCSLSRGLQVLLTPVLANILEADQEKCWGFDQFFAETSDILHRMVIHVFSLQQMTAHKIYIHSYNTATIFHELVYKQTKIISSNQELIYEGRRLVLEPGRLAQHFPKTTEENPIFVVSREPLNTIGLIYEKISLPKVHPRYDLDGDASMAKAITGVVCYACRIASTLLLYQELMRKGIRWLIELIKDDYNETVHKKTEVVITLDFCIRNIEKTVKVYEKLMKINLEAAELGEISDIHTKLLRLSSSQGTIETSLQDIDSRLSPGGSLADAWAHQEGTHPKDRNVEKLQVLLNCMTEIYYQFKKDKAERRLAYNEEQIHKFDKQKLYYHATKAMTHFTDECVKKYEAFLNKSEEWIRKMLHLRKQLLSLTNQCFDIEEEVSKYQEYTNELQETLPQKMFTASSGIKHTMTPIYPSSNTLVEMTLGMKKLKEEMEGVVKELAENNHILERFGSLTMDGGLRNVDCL
assay_endpoint: pIC50
Give bare numbers, as −log10 of the molar value.

compound	pIC50
COc1c(NC2CCC2)ncnc1-c1ccc2nc(Nc3cc(C(C)N4CCN(C(=O)CC(F)(F)F)CC4)ccn3)[nH]c2c1 (single isomer, unassigned)	8.08

# batch: return pIC50 for each of the 3 compounds below
1. Cn1ncnc1-c1ccc2nc(Nc3cc(CN4CCN(C(=O)CC(F)(F)F)CC4)ccn3)[nH]c2c1
2. CN(C)c1ncnc(-c2ccc3nc(Nc4cc(CN5CCN(C(=O)OC(C)(C)C)CC5)ccn4)[nH]c3c2)c1Cl
3. CC(O)c1cc(-c2ccc3nc(Nc4cc(CN5CCN(C(=O)CC(F)(F)F)CC5)ccn4)[nH]c3c2)ncn1 (racemic)

Outgoing:
6.17
5.52
7.74

----------
molecular target: TBK1 (Homo sapiens (Human), UniProt Q9UHD2); test: TBK1 low ATP kinase assay (in vitro assay 1); format: biochemical; conditions: in vitro assay 1, read-out: TBK1 low ATP kinase assay IC50
Kindly apply the following: TRUE if IC50 is less than 80 nM, FALSE in every other case.

compound	system_tested	class
O=C(C1CC1)N1CCN(Cc2ccnc(Nc3nc4ccc(-c5cc(OCC6(C(F)(F)F)CC6)ncn5)cc4[nH]3)c2)CC1 [Example 158.03]	TBK1 (Homo sapiens (Human), UniProt Q9UHD2)	TRUE

Incoming: I wonder whether Cc1cc(-c2ccc3nc(Nc4cc(C(C)N5CCN(C(=O)OC(C)(C)C)CC5)ccn4)[nH]c3c2Cl)ncn1 (single isomer, unassigned) [Example 98.01] has IC50 below 80 nM. Can you tell?
Outgoing: FALSE

Incoming: I wonder whether CC(c1ccnc(Nc2nc3ccc(-c4ccnn4C(C)C)cc3[nH]2)c1)N1CCN(C(=O)C2CC2)CC1 (single isomer, unassigned) [Example 72.03] has IC50 below 80 nM. Can you tell?
Outgoing: FALSE

Incoming: I wonder whether Cc1cc(-c2ccc3nc(Nc4cc(C(C)N5CCN(C(=O)C6CCC6)CC5)ccn4)[nH]c3c2)ncn1 (racemic) [Example 30.02.02] has IC50 below 80 nM. Can you tell?
Outgoing: TRUE

Incoming: I wonder whether COc1cncnc1-c1ccc2nc(Nc3cc(C(C)N4CCN(C(=O)C5CC5)CC4)ccn3)[nH]c2c1 (single isomer, unassigned) [Example 35.03.03.B] has IC50 below 80 nM. Can you tell?
Outgoing: TRUE

----------
target: TBK1 (Homo sapiens (Human), UniProt Q9UHD2); assay: TBK1 low ATP kinase assay (in vitro assay 1); type: biochemical; settings: in vitro assay 1, read-out: TBK1 low ATP kinase assay IC50
pIC50: −log10 of the molar value.
Use 8 as the dividing line for pIC50, with the line itself on the fulfilled side and lower values as not fulfilled.

Examples from the recorded data:
molecule	system_tested	class
CC(O)c1cc(-c2ccc3nc(Nc4cc(CN5CCN(C(=O)OC(C)(C)C)CC5)ccn4)[nH]c3c2)ncn1 (racemic) [Example 97.01]	TBK1 (Homo sapiens (Human), UniProt Q9UHD2)	not fulfilled
CC(C)Nc1cc(-c2ccc3nc(Nc4cc(CN5CCN(C(=O)CC(F)(F)F)CC5)ccn4)[nH]c3c2)ncn1 [Example 154.02]	TBK1 (Homo sapiens (Human), UniProt Q9UHD2)	fulfilled
CC(=O)c1cc(-c2ccc3nc(Nc4cc(CN5CCN(C(=O)CC(F)(F)F)CC5)ccn4)[nH]c3c2)ncn1 [Example 97.03]	TBK1 (Homo sapiens (Human), UniProt Q9UHD2)	not fulfilled
CC(c1ccnc(Nc2nc3ccc(-c4cnn(CC5CCC5)c4)c(Cl)c3[nH]2)c1)N1CCN(C(=O)C2CC2)CC1 (single isomer, unassigned) [Example 75.03]	TBK1 (Homo sapiens (Human), UniProt Q9UHD2)	fulfilled
CC(C)(C)OC(=O)N1CCN(Cc2ccnc(Nc3nc4ccc(-c5c(F)cncc5Cl)cc4[nH]3)c2)CC1 [Example 132.01]	TBK1 (Homo sapiens (Human), UniProt Q9UHD2)	not fulfilled
COCCCS(=O)(=O)N1CCN(Cc2ccnc(Nc3nc4ccc(-c5ncncc5OC)cc4[nH]3)c2)CC1 [Example 35.01.10]	TBK1 (Homo sapiens (Human), UniProt Q9UHD2)	not fulfilled
CC(C)(C)OC(=O)N1CCN(Cc2ccnc(Nc3nc4ccc(-c5ncccn5)cc4[nH]3)c2)CC1 [Example 180.01]	TBK1 (Homo sapiens (Human), UniProt Q9UHD2)	not fulfilled
Cc1nccc(-c2ccc3nc(Nc4cc(C(C)N5CCN(C(=O)CC(F)(F)F)CC5)ccn4)[nH]c3c2)n1 (single isomer, unassigned) [Example 24.05.01.A]	TBK1 (Homo sapiens (Human), UniProt Q9UHD2)	not fulfilled
CC(C)c1cc(-c2ccc3nc(Nc4cc(CN5CCN(C(=O)CC(F)(F)F)CC5)ccn4)[nH]c3c2)ncn1 [Example 78.01]	TBK1 (Homo sapiens (Human), UniProt Q9UHD2)	not fulfilled

Now let's try a different one.
Incoming: Evaluate COCc1cc(-c2ccc3nc(Nc4cc(CN5CCN(C(=O)C6CC6)CC5)ccn4)[nH]c3c2)ncn1 [Example 79.02] : pIC50 at minimum 8?
Outgoing: fulfilled
